// provenance: patent US20240391954A1

Consider the following binders and their measured MC4R selectivity vs MC1R readings.
Target: human MC4R receptor (human, UniProt P32245 1-332)
Sequence (P32245 whole entry): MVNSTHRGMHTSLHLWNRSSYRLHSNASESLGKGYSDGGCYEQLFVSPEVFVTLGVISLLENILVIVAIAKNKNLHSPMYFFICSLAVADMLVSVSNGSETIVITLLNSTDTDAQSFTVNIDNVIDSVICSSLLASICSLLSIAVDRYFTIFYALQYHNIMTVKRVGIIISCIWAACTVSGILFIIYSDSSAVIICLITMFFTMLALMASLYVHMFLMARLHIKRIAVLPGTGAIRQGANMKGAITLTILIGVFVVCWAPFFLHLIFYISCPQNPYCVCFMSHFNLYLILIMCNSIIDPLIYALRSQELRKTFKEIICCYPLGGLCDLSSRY
Test: cell-based or functional assay
Starred links: 1 amine or outer side, 2 acyl side, 3 side chain; linkers in the order of their positions; H or OH if unused. Positions of bridges follow the written chain, without caps; N, C: chain ends. Non-standard residues stand in square brackets, D forms with d. dTyr(4-OMe) = O-methyl-D-tyrosine (4-OMe), COc1ccc(C[C@@H](N[*:1])C(=O)[*:2])cc1; dPhe(4-Br) = N[C@H](Cc1ccc(Br)cc1)C(=O)O; dTic = O=C(O)[C@H]1Cc2ccccc2CN1; Cit = NC(=O)NCCC[C@H](N)C(=O)O; Aib = CC(C)(N)C(=O)O
Simply state the number, no unit and no words.

// known answers, use as guide
[
  {
    "BINDER": "Ac-CGR[dTyr(4-OMe)]RFC-NH2 (disulfide 1-7; SMILES COc1ccc(C[C@H]2NC(=O)[C@H](CCCNC(=N)N)NC(=O)CNC(=O)[C@@H](NC(C)=O)CSSC[C@@H](C(N)=O)NC(=O)[C@H](Cc3ccccc3)NC(=O)[C@H](CCCNC(=N)N)NC2=O)cc1) [CTX-1641]",
    "READOUT_LABEL": "MC4R selectivity vs MC1R",
    "NUMBER": 0.28
  },
  {
    "BINDER": "Ac-RC[dA]R[dTic]R[dW]C-NH2 (disulfide 2-8) [CTX-1273]",
    "READOUT_LABEL": "MC4R selectivity vs MC1R",
    "NUMBER": 0.05
  },
  {
    "BINDER": "Ac-RC[Aib]R[dF][Cit][dW]C-NH2 (disulfide 2-8) [CTX-1271]",
    "READOUT_LABEL": "MC4R selectivity vs MC1R",
    "NUMBER": 2.9
  }
]

Lab note: next binder to report on.
# get_value(readout='MC4R selectivity vs MC1R', item= Ac-RC[dA]R[dPhe(4-Br)]R[dF]C-NH2 (disulfide 2-8; SMILES CC(=O)N[C@@H](CCCNC(=N)N)C(=O)N[C@H]1CSSC[C@@H](C(N)=O)NC(=O)[C@@H](Cc2ccccc2)NC(=O)[C@H](CCCNC(=N)N)NC(=O)[C@@H](Cc2ccc(Br)cc2)NC(=O)[C@H](CCCNC(=N)N)NC(=O)[C@@H](C)NC1=O) [CTX-1255] )
0.05
